target_entity: Protein-serine O-palmitoleoyltransferase porcupine (Homo sapiens)
Sequence (whole entry): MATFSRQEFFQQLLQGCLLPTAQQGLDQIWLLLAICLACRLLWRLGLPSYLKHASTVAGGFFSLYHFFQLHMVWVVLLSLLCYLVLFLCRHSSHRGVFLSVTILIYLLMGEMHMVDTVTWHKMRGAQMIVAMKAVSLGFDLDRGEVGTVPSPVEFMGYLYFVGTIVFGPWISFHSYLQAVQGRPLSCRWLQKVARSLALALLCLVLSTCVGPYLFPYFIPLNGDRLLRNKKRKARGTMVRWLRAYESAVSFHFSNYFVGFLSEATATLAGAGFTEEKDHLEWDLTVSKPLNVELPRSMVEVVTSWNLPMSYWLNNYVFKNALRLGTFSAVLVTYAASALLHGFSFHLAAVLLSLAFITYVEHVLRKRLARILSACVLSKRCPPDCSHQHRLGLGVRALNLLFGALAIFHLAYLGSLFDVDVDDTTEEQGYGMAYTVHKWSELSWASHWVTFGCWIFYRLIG
assay_name: Inhibition of porcn-mediated Shh palmitoylation in human DLD1 lysate by detergent solubility fractionation assessed as [3H]palmitate incorporation at 2.5 uM by autoradiography method
Active and inactive are the calls of the source. No cut-off for these calls is given here.

| chemical_structure | inhibition |
| --- | --- |
| Cc1ccc2nc(NC(=O)CSc3nc4c(c(=O)n3-c3ccccc3)SCC4)sc2c1 | inactive |
| COc1ccc(-n2nc(C(=O)NCC(=O)Nc3nc4ccc(OC)cc4s3)c3ccccc3c2=O)cc1 | inactive |
| Cc1ccc2nc(NC(=O)CSc3nc4c(c(=O)n3-c3ccc(F)cc3)SCC4)sc2c1 | inactive |
| COc1ccccc1-n1c(SCC(=O)Nc2nc3ccc(C)cc3s2)nc2c(c1=O)SCC2 | inactive |
